target-desc: noradrenaline (NA) reuptake sites (Rattus norvegicus, UniProt Q63380)
Construct: Frontal cortical tissue from the brains of male Sprague-Dawley rats
Sequence (Q63380 1-617): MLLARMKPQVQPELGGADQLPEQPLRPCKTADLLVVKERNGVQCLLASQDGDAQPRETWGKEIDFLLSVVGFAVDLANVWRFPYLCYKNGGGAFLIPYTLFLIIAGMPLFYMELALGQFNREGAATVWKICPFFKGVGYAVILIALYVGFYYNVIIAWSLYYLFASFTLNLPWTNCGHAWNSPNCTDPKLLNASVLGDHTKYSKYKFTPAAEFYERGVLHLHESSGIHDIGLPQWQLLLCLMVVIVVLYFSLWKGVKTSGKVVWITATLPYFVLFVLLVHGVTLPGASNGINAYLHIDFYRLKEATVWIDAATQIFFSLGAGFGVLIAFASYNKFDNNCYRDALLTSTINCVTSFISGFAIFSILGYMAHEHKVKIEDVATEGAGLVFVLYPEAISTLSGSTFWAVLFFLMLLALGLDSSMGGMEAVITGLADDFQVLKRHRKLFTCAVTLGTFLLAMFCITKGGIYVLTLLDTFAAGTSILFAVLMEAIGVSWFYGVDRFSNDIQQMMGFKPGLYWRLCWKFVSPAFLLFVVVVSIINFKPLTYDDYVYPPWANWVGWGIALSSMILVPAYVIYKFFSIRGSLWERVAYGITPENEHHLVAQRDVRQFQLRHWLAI
experiment-notes: inhibition of [3H]noradrenaline uptake in vitro, frontal cortical synaptosomes
test-conditions: [3H]noradrenaline 10 nM, means of three independent determinations
Structures can show the parent of a compound that is named as a salt.
readout-label: pKi
As a rule, pKi stands for the negative log10 of the concentration, concentration in M.

Inquiry: # lookup: pKi of Clc1ccc(C2(C3=CSC4=NCCN34)CCC2)cc1Cl [Example 1, hydrobromide]
Reply text: 7.47

Inquiry: Endpoint output: pKi of C1=C(C2(c3ccc4ccccc4c3)CCC2)N2CCN=C2S1 [Example 5, hydrobromide] . Value?
Reply text: 8.36

Inquiry: Which value of pKi has been reported for Clc1ccc(C2(C3=CSC4=NCCCN34)CCC2)cc1 [Example 2, hydrobromide] in the records?
Reply text: 6.58

Inquiry: Data request, read-out pKi, for Clc1ccc(C2(C3=CSC4=NCCCN34)CCC2)cc1Cl [Example 4, hydrobromide]
Reply text: 7.82

Inquiry: Give the measured pKi of Clc1ccc(C2(C3=CSC4=NCCN34)CCC2)cc1 [Example 3, hydrobromide] .
Reply text: 7.66

###

I'd appreciate it if you could supply inhibition at 1 µM values for the items below.
target-desc: noradrenaline (NA) reuptake sites (Rattus norvegicus, UniProt Q63380)
Construct: Frontal cortical tissue from the brains of male Sprague-Dawley rats; from tissue; host or cells: rat brain frontal cortex (crude synaptosomes in A3, washed membranes in A6)
experiment-notes: displacement of [3H]nisoxetine from noradrenaline reuptake sites, frontal cortical membranes
test-conditions: 10^-6 M test compound, [3H]nisoxetine 0.6 nM, one test only, read-out: NA uptake (% displacement of specific binding of tritiated ligand)
Structures can show the parent of a compound that is named as a salt.
Please respond with the number in % and leave the unit unwritten.

Inquiry: Any idea what inhibition at 1 µM was measured for Brc1ccc(C2(C3=CSC4=NCCN34)CCC2)cc1 [Example 70, hydrobromide] ?
Reply text: 52

Inquiry: Data request, read-out inhibition at 1 µM, for CN=c1scc(C2(c3ccc4ccccc4c3)CCC2)n1C [Example 36, hydrobromide]
Reply text: 101

Inquiry: # get_value(readout='inhibition at 1 µM', item= C=CCN=c1scc(C2(c3ccc4ccccc4c3)CCC2)n1CC=C [Example 42, hydrobromide] )
Reply text: 93

Inquiry: Field request: inhibition at 1 µM | item: CCCN=c1scc(C2(c3ccc(Cl)c(Cl)c3)CCC2)n1CCC [Example 16, hydrobromide]
Reply text: 56

###

Task for the reader: assign each of the following molecules its reported inhibition at 1 µM.
target-desc: dopamine (DA) reuptake sites (Rattus norvegicus)
Construct: Striatal tissue from the brains of male Charles River rats weighing 150-250 g; from tissue; host or cells: rat brain striatum (crude synaptosomes in A1, washed membranes in A4)
Sequence (P23977 whole entry): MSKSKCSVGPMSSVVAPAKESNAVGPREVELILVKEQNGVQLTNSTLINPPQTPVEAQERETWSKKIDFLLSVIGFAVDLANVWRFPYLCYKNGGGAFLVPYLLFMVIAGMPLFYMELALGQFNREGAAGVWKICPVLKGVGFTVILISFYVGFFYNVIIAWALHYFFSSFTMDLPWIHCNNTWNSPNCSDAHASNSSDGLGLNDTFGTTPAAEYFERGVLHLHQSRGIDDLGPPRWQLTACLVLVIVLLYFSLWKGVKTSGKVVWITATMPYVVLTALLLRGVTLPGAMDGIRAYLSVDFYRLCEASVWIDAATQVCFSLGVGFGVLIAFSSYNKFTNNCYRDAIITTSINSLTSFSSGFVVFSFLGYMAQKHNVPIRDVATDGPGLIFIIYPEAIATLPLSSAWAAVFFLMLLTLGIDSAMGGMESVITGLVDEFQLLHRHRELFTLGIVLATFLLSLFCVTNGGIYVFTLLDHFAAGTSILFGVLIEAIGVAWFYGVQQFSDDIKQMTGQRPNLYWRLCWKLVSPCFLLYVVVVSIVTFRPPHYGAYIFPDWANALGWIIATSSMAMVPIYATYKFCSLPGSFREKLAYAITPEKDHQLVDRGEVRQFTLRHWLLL
experiment-notes: displacement of [3H]GBR 12935 from dopamine reuptake sites, striatal membranes
Format: binding
test-conditions: 10^-6 M test compound, [3H]GBR 12935 1 nM, one test only, read-out: DA uptake (% displacement of specific binding of tritiated ligand)
Counter-ions that a name gives are not always drawn.
The reply should contain only the number, in %.

Inquiry: // inhibition at 1 µM lookup, key: Cc1ccc(N=c2scc(C3(c4ccc5ccccc5c4)CCC3)n2-c2ccc(C)cc2C)c(C)c1 [Example 52, hydrobromide]
Reply text: 74

Inquiry: For the molecule shown here, COc1ccc(CCN=c2scc(C(C)(C)c3ccc(Cl)c(Cl)c3)n2CCc2ccc(OC)c(OC)c2)cc1OC [Example 69, hydrobromide] , give the reported inhibition at 1 µM.
Reply text: 58

Inquiry: Which inhibition at 1 µM is listed for CCCCN=c1scc(C(C)(C)c2ccc(Cl)cc2)n1CCCC [Example 62, hydrobromide] ?
Reply text: 55

Inquiry: Which inhibition at 1 µM is listed for Clc1ccc(C2=C(C3(c4ccc(Cl)c(Cl)c4)CCC3)N3CCN=C3S2)cc1 [Example 10, hydrobromide] ?
Reply text: 85

Inquiry: Returns the measured inhibition at 1 µM for the input molecule. Input: Clc1ccc(C2(C3=C(Cc4ccccc4)SC4=NCCN43)CCC2)cc1 [Example 7, hydrobromide]
Reply text: 69

Inquiry: GET /values?readout=inhibition at 1 µM&item= CCCCN=c1scc(C2(c3ccc(Cl)cc3)CCC2)n1CCCC [Example 56, hydrobromide]
Reply text: 93

Inquiry: For C=CCN=c1scc(C2(c3ccc(Cl)c(Cl)c3)CCC2)n1CC=C [Example 20, hydrobromide] , what is its reported inhibition at 1 µM?
Reply text: 105
